- Test system: Renilla luciferase RNA
- assay_details: Barcoded aptazyme variant library screen: un-cleaved Renilla luciferase RNA by barcode read counts, HEK293-T cells
- Format: cell-based
- settings: un-cleaved Renilla luciferase RNA, HEK293-T cells cultured with 1 mM theophylline (ON) over without theophylline (OFF); barcode read counts, triplicate
Give Fold change in RNA expression between the ON state and the OFF state for every item shown.
Give bare numbers, in fold.

RA077 (nucleic acid, expressed or natural sequence) DNA: GCGCGTCCAGTGATACCAGCATCGTCTTGATGCCCTTGGCAGCACTTGGATTCGCGGAAACGCGTACATCCAGCTGACGAGTCCCAAATAGGACGAAACGCGC: 1.8

Please turn your attention to the following entry.
Form field Fold change in RNA expression between the ON state and the OFF state, entry RA213 (nucleic acid, expressed or natural sequence) DNA: GCGCGTCCTGGATTCGCGGAAACGCGTACATCCAGCTCGAGAATACCAGCATCGTCTTGATGCCCTTGGAAGTCTCGGACGAGTCCCAAATAGGACGAAACGCGC : 1.2
